Cited source for all entries: paper PMC8200842

Molecular target: MelBSt (Salmonella typhimurium)
Assay type: binding
Settings: apo MelBSt (main buffer), 15°C
MEASUREMENT KIND: pKd
// pKd: -log10(molar conc.)

1. [Na+] [Na^+] :: 3.29

Then this molecule:
Given OC[C@H]1O[C@H](OCC2O[C@@H](O)[C@H](O)[C@@H](O)[C@@H]2O)[C@H](O)[C@@H](O)[C@H]1O (some centres unmarked) [Mel, melibiose] , state its recorded pKd.
2.04

----------
Molecular target: MelBSt (Salmonella typhimurium)
Assay type: binding
Conditions: MelBSt with 50 mM melibiose (MelBSt/Mel binary complex), 15°C
MEASUREMENT KIND: Kd
Your reply should be a number followed by the unit it is expressed in.

Which Kd is reported for this molecule? [Na+]
60 µM

----------
Target: UniProt P30878
Type: binding
Settings: apo MelBSt (main buffer), 25°C
Listed next: entries and their corresponding Kd.

Recorded Kd for [Na+] , please?
0.59 mM

What Kd value was documented for this compound, OC[C@H]1O[C@H](OCC2O[C@@H](O)[C@H](O)[C@@H](O)[C@@H]2O)[C@H](O)[C@@H](O)[C@H]1O (some centres unmarked) ?
10.8 mM

----------
Molecular target: MelBSt (Salmonella typhimurium, UniProt P30878)
Sequence (P30878 whole entry): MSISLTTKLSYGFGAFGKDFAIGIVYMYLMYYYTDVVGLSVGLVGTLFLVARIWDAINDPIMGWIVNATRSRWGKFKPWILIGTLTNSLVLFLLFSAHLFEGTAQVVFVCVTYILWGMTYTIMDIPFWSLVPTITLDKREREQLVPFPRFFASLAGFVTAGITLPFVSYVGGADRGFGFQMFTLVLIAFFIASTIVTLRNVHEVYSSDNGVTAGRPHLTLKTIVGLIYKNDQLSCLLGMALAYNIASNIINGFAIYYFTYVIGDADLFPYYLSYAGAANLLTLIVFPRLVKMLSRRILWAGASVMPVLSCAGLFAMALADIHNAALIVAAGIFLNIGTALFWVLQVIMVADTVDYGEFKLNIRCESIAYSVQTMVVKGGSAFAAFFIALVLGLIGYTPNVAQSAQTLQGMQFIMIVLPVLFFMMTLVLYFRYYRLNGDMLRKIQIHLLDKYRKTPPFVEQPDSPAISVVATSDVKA
Format: binding
Conditions: MelBSt with 50 mM melibiose (MelBSt/Mel binary complex), 25°C
MEASUREMENT KIND: Kd (µM)
Please state the figure in µM; there is no need to write the unit.

I have this compound here, [Na+] , and I need its recorded Kd.
120

----------
Molecular target: MelBSt (Salmonella typhimurium, UniProt P30878)
Assay type: binding
Details: MelBSt with 100 mM NaCl (MelBSt/Na^+ binary complex), 30°C
MEASUREMENT KIND: Kd (mM)
Numeric answer only, unit mM assumed.

# Kd lookup, item OC[C@H]1O[C@H](OCC2O[C@@H](O)[C@H](O)[C@@H](O)[C@@H]2O)[C@H](O)[C@@H](O)[C@H]1O (stereo partly shown)
1.41

----------
Target: MelBSt (Salmonella typhimurium, UniProt P30878)
Assay type: binding
Conditions: MelBSt with 100 mM NaCl (MelBSt/Na^+ binary complex), 20°C
MEASUREMENT KIND: Kd
Enter the number, and then the unit.

Please give the measured Kd for this molecule: OC[C@H]1O[C@H](OCC2O[C@@H](O)[C@H](O)[C@@H](O)[C@@H]2O)[C@H](O)[C@@H](O)[C@H]1O (stereo partly shown)
950 µM

----------
Biological target: MelBSt (Salmonella typhimurium, UniProt P30878)
Format: binding
Conditions: apo MelBSt, range over 15°C, 20°C, 25°C and 30°C
MEASUREMENT KIND: Kd

Any idea what Kd was measured for OC[C@H]1O[C@H](OCC2O[C@@H](O)[C@H](O)[C@@H](O)[C@@H]2O)[C@H](O)[C@@H](O)[C@H]1O (stereo partly shown) ?
9 to 13 mM

----------
Target: MelBSt (Salmonella typhimurium, UniProt P30878)
Format: binding
Settings: MelBSt with 50 mM melibiose (MelBSt/Mel binary complex), 30°C
MEASUREMENT KIND: Kd (µM)
Give the number; µM is assumed, so skip it.

What does the record list as Kd for [Na+] ?
120

----------
Biological target: MelBSt (Salmonella typhimurium)
Format: binding
Settings: MelBSt with 100 mM NaCl (MelBSt/Na^+ binary complex), 35°C
MEASUREMENT KIND: Kd (µM)
All answers are understood in µM, so give the number only.

I am curious: what Kd value has been reported for OC[C@H]1O[C@H](OCC2O[C@@H](O)[C@H](O)[C@@H](O)[C@@H]2O)[C@H](O)[C@@H](O)[C@H]1O (stereo partly shown) ?
1780

----------
Biological target: MelBSt (Salmonella typhimurium, UniProt P30878)
Type: binding
Conditions: MelBSt with 100 mM NaCl (MelBSt/Na^+ binary complex), 25°C
MEASUREMENT KIND: Kd (µM)
I only need the number, in µM, no unit after it.

Given the compound OC[C@H]1O[C@H](OCC2O[C@@H](O)[C@H](O)[C@@H](O)[C@@H]2O)[C@H](O)[C@@H](O)[C@H]1O (stereo partly shown) , what is its reported Kd?
1180
